Entries and their Population Apoptotic (%)
# System: HEK-293T
# experiment: Multiplex assay against HEK293T
# Assay type: toxicity, cell-based
# setup.conditions: human, 48 h, 10 µM, compound concentration 10 uM, replicate 2

Solved cases below.
[
  {
    "compound": "N[C@@]1(C(=O)O)CO[C@H]2[C@H](C(=O)O)[C@H]21 [LY-379268]",
    "test.target": "HEK-293T",
    "Population Apoptotic (%)": "25%"
  },
  {
    "compound": "Cc1ccc(C(C)(O)c2nc3ccccc3s2)c(C)c1 (centres undefined)",
    "test.target": "HEK-293T",
    "Population Apoptotic (%)": "50%"
  },
  {
    "compound": "CC(C)(C)c1ccc(S(=O)(=O)Nc2ccc(Cl)cc2C(=O)c2cc[n+]([O-])cc2)cc1 [VERCIRNON]",
    "test.target": "HEK-293T",
    "Population Apoptotic (%)": "25%"
  },
  {
    "compound": "O=C(NCCO)c1cccc(-c2cc(Nc3ccc(OC(F)(F)F)cc3)ncn2)c1",
    "test.target": "HEK-293T",
    "Population Apoptotic (%)": "58%"
  },
  {
    "compound": "C[C@@H]1C[C@H]2[C@@H]3CCC4=CC(=O)C=C[C@]4(C)[C@@]3(F)[C@@H](O)C[C@]2(C)[C@@]1(O)C(=O)CO [DEXAMETHASONE]",
    "test.target": "HEK-293T",
    "Population Apoptotic (%)": "50%"
  },
  {
    "compound": "CN(C)c1ccnc2sc3c(=O)n(N4CCCCCC4)cnc3c12",
    "test.target": "HEK-293T",
    "Population Apoptotic (%)": "57%"
  },
  {
    "compound": "CN1CCN(c2nc3cc(C(F)(F)F)ccc3n3cccc23)CC1.O=C(O)/C=C\\C(=O)O.O=C(O)/C=C\\C(=O)O",
    "test.target": "HEK-293T",
    "Population Apoptotic (%)": "52%"
  },
  {
    "compound": "C[C@H](NC(=O)c1c(C(F)F)nn(C)c1Oc1cccc(C(F)(F)F)c1)c1ccc(C(=O)O)cc1 [PALUPIPRANT]",
    "test.target": "HEK-293T",
    "Population Apoptotic (%)": "28%"
  }
]

Here's the next entry for you.
Tell me the measured Population Apoptotic (%) of CC(=O)NCCc1c(Cc2ccccc2)[nH]c2ccccc12 [LUZINDOLE] , please.
36%

====

Entries and their Population Mitochondria Different-Phenotype (%)
# Test system: Fibroblast
# experiment: Multiplex assay against human fibroblast
# Assay type: toxicity, cell-based
# setup.conditions: 48 h, 1 µM, compound concentration 1 uM, replicate 2
Please reply with the bare figure in % and do not write the unit itself.

Solved cases below.
[
  {
    "molecule": "Cc1ccc(F)cc1C(=O)Nc1ccc(C(=O)N2Cc3cccn3Cc3ccccc32)c(Cl)c1",
    "test.target": "Fibroblast",
    "reading": 11
  },
  {
    "molecule": "CNC[C@H](O)c1ccc(O)c(O)c1 [EPINEPHRINE]",
    "test.target": "Fibroblast",
    "reading": 5
  },
  {
    "molecule": "C[C@H]1[C@H]2CC[C@H]3[C@@H]4CC=C5C[C@@H](N(C)C)CC[C@]5(C)[C@H]4CC[C@]23CN1C",
    "test.target": "Fibroblast",
    "reading": 8
  },
  {
    "molecule": "CC(=O)NCCc1c(Cc2ccccc2)[nH]c2ccccc12",
    "test.target": "Fibroblast",
    "reading": 5
  }
]

Tell me the measured Population Mitochondria Different-Phenotype (%) of CSc1ccccc1N1CCN(CCCCCC(=O)NC2CCCc3ccccc32)CC1.Cl (configuration not stated) , please.
12

Follow-up entry: `Oc1c(CN2CCN(c3ccccn3)CC2)cc(Cl)c2cccnc12`
4

Follow-up entry: CCCN1CCC[C@@H]2Cc3n[nH]cc3C[C@H]21.Cl [QUINPIROLE HYDROCHLORIDE]
4

Follow-up entry: `O=C(NCCO)c1cccc(-c2cc(Nc3ccc(OC(F)(F)F)cc3)ncn2)c1`
4

Follow-up entry: `N#Cc1c(N)nc(SCc2csc(-c3ccc(Cl)cc3)n2)c(C#N)c1-c1ccc(OCCO)cc1`
12

Follow-up entry: `CC(C)(C)c1ccc(S(=O)(=O)Nc2ccc(Cl)cc2C(=O)c2cc[n+]([O-])cc2)cc1`
9

Follow-up entry: COc1ccc2c(c1)C(C(=O)N(Cc1ccc(N(C)C)cc1)c1ccc(C(C)C)cc1)CCC2.Cl (configuration not stated)
13

Follow-up entry: `CC[C@H]1OC(=O)[C@H](C)[C@@H](O[C@H]2C[C@@](C)(OC)[C@@H](O)[C@H](C)O2)[C@H](C)[C@@H](O[C@@H]2O[C@H](C)C[C@H](N(C)C)[C@H]2O)[C@@]2(C)CC(C)=C(O2)[C@H](C)[C@@H](O)[C@]1(C)O`
5

Follow-up entry: `CCOc1c2c(c(OCC)c3ncccc13)CN(c1ccc(CS(=O)(=O)NC(=O)Cc3ccccc3OC)cc1C)C2=O`
7

Follow-up entry: `O=C(NCC(=O)N1CC[C@H](N[C@H]2CC[C@@](O)(c3ccc(-c4ncccn4)cn3)CC2)C1)c1cccc(C(F)(F)F)c1`
4

====

# System: Fibroblast
# experiment: Multiplex assay against human fibroblast
# Assay type: toxicity, cell-based
# setup.conditions: 48 h, 10 µM, compound concentration 10 uM, replicate 2
Entries and their Total Cell Count
Quick one: just the number, no unit, thanks!

Solved cases below.
[
  {
    "compound": "O=C(NCC(=O)N1CC[C@H](N[C@H]2CC[C@@](O)(c3ccc(-c4ncccn4)cn3)CC2)C1)c1cccc(C(F)(F)F)c1",
    "Total Cell Count": 129
  },
  {
    "compound": "O=C1COc2nccc(-c3ccccc3F)c2CN1Cc1cc(C(F)(F)F)cc(C(F)(F)F)c1",
    "Total Cell Count": 144
  },
  {
    "compound": "c1cc(OCCCN2CCCCC2)ccc1CN1CCCCC1",
    "Total Cell Count": 132
  },
  {
    "compound": "CSc1ccccc1N1CCN(CCCCCC(=O)NC2CCCc3ccccc32)CC1.Cl (stereo not drawn)",
    "Total Cell Count": 281
  },
  {
    "compound": "COc1c(C)cc(NC(=O)c2nn(Cc3ccc(F)cc3)c3c2CN(C(=O)c2ccc[nH]2)C[C@]3(C)C(N)=O)cc1C",
    "Total Cell Count": 122
  },
  {
    "compound": "CCNC1(C(N)=O)CCN(c2ncnc3c2nc(-c2ccccc2Cl)n3-c2ccc(Cl)cc2)CC1",
    "Total Cell Count": 299
  },
  {
    "compound": "C[C@H]1[C@H]2CC[C@H]3[C@@H]4CC=C5C[C@@H](N(C)C)CC[C@]5(C)[C@H]4CC[C@]23CN1C",
    "Total Cell Count": 102
  }
]

Here's the next entry for you.
Tell me the measured Total Cell Count of `N#Cc1c(N)nc(SCc2csc(-c3ccc(Cl)cc3)n2)c(C#N)c1-c1ccc(OCCO)cc1` , please.
142

====

# System: Fibroblast
# experiment: Multiplex assay against human fibroblast
# Format: toxicity, cell-based
# setup.conditions: 12 h, 10 µM, compound concentration 10 uM, replicate 1
quantity.measured: Population Pyknosed Nuclei (%)
Please reply with the bare figure in % and do not write the unit itself.

Solved cases below.
[
  {
    "compound": "COc1cc(NC(=O)CCN2CCC(OC(=O)Nc3ccccc3-c3ccccc3)CC2)c(Cl)cc1CNC[C@H](O)c1ccc(O)c2[nH]c(=O)ccc12",
    "reading": 16
  },
  {
    "compound": "CC(C)(C)c1ccc(S(=O)(=O)Nc2ccc(Cl)cc2C(=O)c2cc[n+]([O-])cc2)cc1",
    "reading": 21
  },
  {
    "compound": "CCNC1(C(N)=O)CCN(c2ncnc3c2nc(-c2ccccc2Cl)n3-c2ccc(Cl)cc2)CC1",
    "reading": 12
  }
]

Here's the next entry for you.
Tell me the measured Population Pyknosed Nuclei (%) of Cc1ccc(C(C)(O)c2nc3ccccc3s2)c(C)c1 (centres undefined) , please.
16

====

# Tested on: HEK-293T
# experiment: Multiplex assay against HEK293T
# Type: toxicity, cell-based
# setup.conditions: human, 24 h, 10 µM, compound concentration 10 uM, replicate 2
Entries and their Population Tubulin-Different-Phenotype (%)
Quick note: unit goes after the number.

Solved cases below.
[
  {
    "molecule": "COc1cc(C(=O)N(CCCc2ccccc2)Cc2ccc(CC(=O)O)cc2)cc(OC)c1C",
    "reading": "38%"
  },
  {
    "molecule": "C[C@@H]1C[C@H]2[C@@H]3CCC4=CC(=O)C=C[C@]4(C)[C@@]3(F)[C@@H](O)C[C@]2(C)[C@@]1(O)C(=O)CO",
    "reading": "22%"
  },
  {
    "molecule": "c1cc(OCCCN2CCCCC2)ccc1CN1CCCCC1",
    "reading": "35%"
  },
  {
    "molecule": "CN(C)CCCc1cc(C(=O)Nc2ccc(-c3ccncc3)cc2)ccc1O.Cl.Cl",
    "reading": "19%"
  }
]

Tell me the measured Population Tubulin-Different-Phenotype (%) of `O=C(O)Cc1ccccc1Nc1c(Cl)cccc1Cl` , please.
26%

Follow-up entry: `O=C(NCC(=O)N1CC[C@H](N[C@H]2CC[C@@](O)(c3ccc(-c4ncccn4)cn3)CC2)C1)c1cccc(C(F)(F)F)c1`
27%

Follow-up entry: `CCCC(CCC)C(=O)O`
11%

Follow-up entry: `CC[C@H]1OC(=O)[C@H](C)[C@@H](O[C@H]2C[C@@](C)(OC)[C@@H](O)[C@H](C)O2)[C@H](C)[C@@H](O[C@@H]2O[C@H](C)C[C@H](N(C)C)[C@H]2O)[C@@]2(C)CC(C)=C(O2)[C@H](C)[C@@H](O)[C@]1(C)O`
80%

Follow-up entry: `C[C@H](NC(=O)c1c(C(F)F)nn(C)c1Oc1cccc(C(F)(F)F)c1)c1ccc(C(=O)O)cc1`
19%

Follow-up entry: CCCN1CCC[C@@H]2Cc3n[nH]cc3C[C@H]21.Cl [QUINPIROLE HYDROCHLORIDE]
13%

Follow-up entry: `CN1CCN(c2nc3cc(C(F)(F)F)ccc3n3cccc23)CC1.O=C(O)/C=C\C(=O)O.O=C(O)/C=C\C(=O)O`
58%

Follow-up entry: `COc1ccccc1N1CCN(CCCCNC(=O)c2ccc3ccccc3c2)CC1.Cl`
66%

Follow-up entry: `O=C(O)c1cc2ccccc2c(Cc2c(O)c(C(=O)O)cc3ccccc23)c1O`
18%

Follow-up entry: `COc1cc(NC(=O)CCN2CCC(OC(=O)Nc3ccccc3-c3ccccc3)CC2)c(Cl)cc1CNC[C@H](O)c1ccc(O)c2[nH]c(=O)ccc12`
78%

Follow-up entry: Cc1ccc(C(C)(O)c2nc3ccccc3s2)c(C)c1 (stereo unspecified)
23%

Follow-up entry: `Cc1ccc(-c2ccc(F)cc2COc2ccc(CCC(=O)O)cc2)cc1`
13%
